# target desc: Cholinesterase (Equus caballus, UniProt P81908)
# Sequence (P81908 whole entry): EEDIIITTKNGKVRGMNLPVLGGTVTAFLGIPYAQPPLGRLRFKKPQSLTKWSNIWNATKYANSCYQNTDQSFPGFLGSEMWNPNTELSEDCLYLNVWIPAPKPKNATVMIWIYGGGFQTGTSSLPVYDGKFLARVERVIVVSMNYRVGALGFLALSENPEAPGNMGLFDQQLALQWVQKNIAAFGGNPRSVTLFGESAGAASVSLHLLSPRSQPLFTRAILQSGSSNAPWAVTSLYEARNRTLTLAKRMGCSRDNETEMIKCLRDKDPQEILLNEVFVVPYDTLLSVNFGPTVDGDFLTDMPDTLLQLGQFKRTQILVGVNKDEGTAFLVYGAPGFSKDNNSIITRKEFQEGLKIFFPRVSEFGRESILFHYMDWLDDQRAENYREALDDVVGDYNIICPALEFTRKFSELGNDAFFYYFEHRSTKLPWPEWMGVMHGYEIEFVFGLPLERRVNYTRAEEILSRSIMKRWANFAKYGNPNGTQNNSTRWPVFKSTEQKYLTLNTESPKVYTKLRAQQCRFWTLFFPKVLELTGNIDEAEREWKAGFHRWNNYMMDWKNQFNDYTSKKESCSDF
observable: IC50

Value lookup for IC50; key = Cc1[nH]nc2c1C(c1ccc(F)cc1)c1c(nc3c(c1N)CCCC3)O2 (racemic)
25 µM

Follow-up item: COc1ccc(C2c3c(n[nH]c3C)Oc3nc4c(c(N)c32)CCCC4)cc1OC (racemic)
> 100 µM

Also need COc1ccc(C2c3c(n[nH]c3C)Oc3nc4c(c(N)c32)CCCC4)cc1 (racemic) , thanks.
> 100 µM

###

# target desc: Acetylcholinesterase (Electrophorus electricus, UniProt O42275)
# Sequence (O42275 whole entry): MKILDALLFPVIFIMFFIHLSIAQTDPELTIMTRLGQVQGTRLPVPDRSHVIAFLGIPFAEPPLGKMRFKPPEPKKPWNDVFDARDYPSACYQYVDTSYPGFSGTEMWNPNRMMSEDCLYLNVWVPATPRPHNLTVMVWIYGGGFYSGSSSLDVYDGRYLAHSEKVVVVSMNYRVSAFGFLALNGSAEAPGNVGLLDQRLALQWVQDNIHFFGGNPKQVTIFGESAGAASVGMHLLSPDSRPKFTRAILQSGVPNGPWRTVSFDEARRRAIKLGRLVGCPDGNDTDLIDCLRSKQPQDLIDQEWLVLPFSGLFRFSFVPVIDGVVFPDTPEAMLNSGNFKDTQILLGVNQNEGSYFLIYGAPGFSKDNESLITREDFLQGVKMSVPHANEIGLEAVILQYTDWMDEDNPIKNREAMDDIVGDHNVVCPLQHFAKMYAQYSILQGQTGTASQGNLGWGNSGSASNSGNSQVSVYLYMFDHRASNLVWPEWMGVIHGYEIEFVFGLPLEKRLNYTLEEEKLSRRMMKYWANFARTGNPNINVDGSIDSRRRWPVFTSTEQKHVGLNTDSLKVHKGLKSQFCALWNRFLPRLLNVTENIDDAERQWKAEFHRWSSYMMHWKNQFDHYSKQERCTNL
observable: Ki (nM)
Could you give me the number in nM? Just the number is fine.

Please provide the recorded Ki for COc1ccc(C2c3c(n[nH]c3C)Oc3nc4c(c(N)c32)CCCC4)cc1OC (racemic) , tested on Acetylcholinesterase (Electrophorus electricus, UniProt O42275).
490

###

# target desc: UniProtKB P81908
observable: IC50 (µM)
Write the answer as a number in µM, unit excluded.

Would you mind telling me what IC50 value was observed for Cc1[nH]nc2c1C(c1cccs1)c1c(nc3c(c1N)CCCC3)O2 (racemic) ?
16

Item: Cc1[nH]nc2c1C(c1ccccc1F)c1c(nc3c(c1N)CCCC3)O2 (racemic)
33

Now consider Cc1ccc(C2c3c(n[nH]c3C)Oc3nc4c(c(N)c32)CCCC4)cc1 (racemic) and answer again.
4.5

Thanks! And Cc1[nH]nc2c1C(c1cccc3ccccc13)c1c(nc3c(c1N)CCCC3)O2 (racemic) ?
15

###

So I've got pIC50 readings for Acetylcholinesterase (Electrophorus electricus), take a look.
The meaning of pIC50 here: minus log10 of the concentration in molar units.

Entry under review: COc1ccc(C2c3c(n[nH]c3C)Oc3nc4c(c(N)c32)CCCC4)cc1OC (racemic) . Reported pIC50?
6.72

One more compound: COc1ccc(C2c3c(n[nH]c3C)Oc3nc4c(c(N)c32)CCCC4)cc1 (racemic)
6.51

// next record COc1cc(C2c3c(n[nH]c3C)Oc3nc4c(c(N)c32)CCCC4)cc(OC)c1OC (racemic)
5.66

###

# target desc: Acetylcholinesterase (Electrophorus electricus)
pIC50: −log10 of the molar value.
Would you mind labelling by pIC50? At or over 6 is yes (1), under is no (0).

Identify whether the reported pIC50 of the following compound is 6 or greater: Cc1[nH]nc2c1C(c1ccccc1F)c1c(nc3c(c1N)CCCC3)O2 (racemic)
yes (1)

Also Cc1[nH]nc2c1C(c1cccc([N+](=O)[O-])c1)c1c(nc3c(c1N)CCCC3)O2 (racemic) , if possible.
no (0)

// same read-out, input: COc1ccc(OC)c(C2c3c(n[nH]c3C)Oc3nc4c(c(N)c32)CCCC4)c1 (racemic)
yes (1)

Repeat for the following compound: Cc1[nH]nc2c1C(c1cccc3ccccc13)c1c(nc3c(c1N)CCCC3)O2 (racemic)
yes (1)

Do the same for COc1ccccc1C1c2c(n[nH]c2C)Oc2nc3c(c(N)c21)CCCC3 (racemic) please
no (0)

###

Please respond with reported pIC50 for every item in the list.
# target desc: Acetylcholinesterase (Electrophorus electricus, UniProt O42275)
On this scale, pIC50 is minus log10 of a concentration expressed in M (mol/L).

Enter reported pIC50 observed with Acetylcholinesterase (Electrophorus electricus, UniProt O42275) for Cc1[nH]nc2c1C(c1cccc(Cl)c1Cl)c1c(nc3c(c1N)CCCC3)O2 (racemic)
6.06

Lookup Cc1[nH]nc2c1C(c1ccc(F)cc1)c1c(nc3c(c1N)CCCC3)O2 (racemic)
6.09

Can you handle Cc1ccc(C2c3c(n[nH]c3C)Oc3nc4c(c(N)c32)CCCC4)cc1 (racemic) next?
6.12

Ok, now Cc1[nH]nc2c1C(c1cccs1)c1c(nc3c(c1N)CCCC3)O2 (racemic)
6.14

Values were extracted from ChEMBL document CHEMBL3351779.
